Target: human neutrophil elastase (HNE) (Homo sapiens)
Sequence (P08246 30-247 limits assumed): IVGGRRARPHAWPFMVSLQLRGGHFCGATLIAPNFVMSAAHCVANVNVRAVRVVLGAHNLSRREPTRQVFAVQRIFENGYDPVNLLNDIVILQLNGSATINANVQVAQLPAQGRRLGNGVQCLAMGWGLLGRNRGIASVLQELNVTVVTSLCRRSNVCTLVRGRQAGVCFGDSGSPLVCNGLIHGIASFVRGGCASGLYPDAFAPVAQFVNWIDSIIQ
Test: HNE Enzyme Assay (fluorogenic peptide substrate MeOSuc-Ala-Ala-Pro-Val-AMC)
Conditions: human leukocyte elastase 0.00072 U/mL, substrate 100 μM, 25° C., 30 minutes, at least two separate experiments; read-out: HNE inhibition (IC50 values)
pIC50: −log10 of the molar value.
// values below are reported pIC50

Short answer on human neutrophil elastase (HNE) (Homo sapiens) for Cc1c(-c2ccnn2-c2ccc(C#N)cc2)n(C(=O)N[C@H]2CC[C@H](NC(=O)C[N+](C)(C)C)CC2)c(=O)n1-c1cccc(C(F)(F)F)c1 [Example 87] , pIC50: > 9.00

Reported human neutrophil elastase (HNE) (Homo sapiens) pIC50 for item Cc1c(-c2ccnn2-c2ccc(C#N)cc2)n(C(=O)N[C@H]2CC[C@H](C(=O)NCC[N+](C)(C)C)CC2)c(=O)n1-c1cccc(C(F)(F)F)c1 [Example 77] was > 9.00

Bench note, human neutrophil elastase (HNE) (Homo sapiens): entry Cc1c(-c2ccnn2-c2ccc(C#N)cc2)n(C(=O)NC2(C)CCN(C(=O)C[N+](C)(C)C)CC2)c(=O)n1-c1cccc(C(F)(F)F)c1 [Example 84] , its pIC50 = > 9.00
